System: Bacteroides uniformis
Assay: Antibacterial activity against Bacteroides uniformis isolate by agar dilution method
Type: functional
MEASURE: MIC90

Q. Which MIC90 is reported for this compound? CCC[C@@H]1C[C@@H](C(=O)N[C@@H]([C@H]2O[C@H](SC)[C@H](O)[C@@H](O)[C@H]2O)[C@H](C)Cl)N(C)C1 [CLINDAMYCIN]
A. > 256 µg/mL

Q. Next up: CN(C)c1cc(NC(=O)CNC(C)(C)C)c(O)c2c1C[C@H]1C[C@H]3[C@H](N(C)C)C(O)=C(C(N)=O)C(=O)[C@@]3(O)C(O)=C1C2=O [TIGECYCLINE]
A. 8 µg/mL

Q. Next up: CO[C@@]1(NC(=O)Cc2cccs2)C(=O)N2C(C(=O)O)=C(COC(N)=O)CS[C@@H]21 [CEFOXITIN]
A. 32 µg/mL

Q. Next up: Cc1ncc([N+](=O)[O-])n1CCO [METRONIDAZOLE]
A. 2 µg/mL

Q. Next up: C[C@@H](O)[C@H]1C(=O)N2C(C(=O)O)=C(SCCNC=N)C[C@H]12 [IMIPENEM ANHYDROUS]
A. 2 µg/mL

Q. Next up: COc1c(N2C[C@@H]3CCCN[C@@H]3C2)c(F)cc2c(=O)c(C(=O)O)cn(C3CC3)c12 [MOXIFLOXACIN]
A. 32 µg/mL

Q. Next up: O=C(N[C@H](CO)[C@H](O)c1ccc([N+](=O)[O-])cc1)C(Cl)Cl [CHLORAMPHENICOL]
A. 8 µg/mL
